This collection of values is drawn from PubChem BioAssay (NCI).

# System: MOLT-4 leukemia
# assay-overview: NCI tumour cell line growth inhibition, 48 h
measured-property: TGI

| compound | result |
| --- | --- |
| COc1nc2c(c(=O)[nH]1)N=C(c1ccc([N+](=O)[O-])cc1)CC(c1ccccc1)N2 (configuration not stated) | > 100 µM |

Prompt: Provide TGI value for the following compound: C=C1C(=O)O[C@H]2[C@H]1CC/C(COC(=O)NCc1ccc(Cn3c(=O)sn(CCCI)c3=O)cc1)=C\CC[C@@]1(C)O[C@@H]21
Completion: 3.19 µM

Prompt: Provide TGI value for the following compound: COc1ccc(CCN2C(=O)C(=O)C(C(=O)c3ccccc3)C2c2ccccc2)cc1OC (configuration not stated)
Completion: > 100 µM

Prompt: Provide TGI value for the following compound: COCc1nc(C#N)c(N)o1
Completion: > 10 µM

Prompt: Provide TGI value for the following compound: Nc1nc(N)c2nc(CNc3ccc(C(=O)NC(CCC(=O)O)C(=O)O)cc3)cnc2n1 (configuration not stated)
Completion: > 100 µM

Prompt: Provide TGI value for the following compound: CC1(C)OC(COP2OCCO2)[C@H](COP2OCCO2)O1 (some centres not stated)
Completion: > 100 µM

Prompt: Provide TGI value for the following compound: N#CC1(C2CC(=O)N(c3ccccc3)C2=O)CCCCC1=O (configuration not stated)
Completion: > 100 µM

Prompt: Provide TGI value for the following compound: C[C@@H](NC(=O)Nc1cccc(C(=O)Nc2cc(C(C)(C)C)ccc2C(=O)O)n1)c1ccccc1
Completion: > 100 µM

Prompt: Provide TGI value for the following compound: O=C(NNC(=O)c1cc2ccccc2[nH]1)c1cc2ccccc2[nH]1
Completion: > 100 µM

Prompt: Provide TGI value for the following compound: CC(=O)OCCn1c(Cc2ccc(Cl)cc2)nn(C(C)=O)c1=O
Completion: > 100 µM

Prompt: Provide TGI value for the following compound: C[N+](C)(C)CC(=O)N/N=C\c1c(O)ccc2ccccc12
Completion: 51.7 µM

Prompt: Provide TGI value for the following compound: O=c1[nH]c2c(ccc3cnccc32)c2c1CCC2
Completion: > 100 µM
